Please provide measured minimal effective concentration for the entries that follow.
Tested on: RPE-Neo or RPE-MYC or RPE-MYC expressing an EGFP-Histone 2B fusion protein
Experiment: Phenotypic screening assay (arrest in mitosis, change in DNA content, cell death; GE IN-Cell Analyzer 2000)
Type: cell-based
Conditions: Homo sapiens; min. effective conc.; compounds 20 nM to 20 μM; 24, 48 or 72 hours; read-out: Cell Death (>30%)

Look at this compound and give its reported minimal effective concentration. CNC(=O)C1CC(=O)N(Cc2c(C)cccc2C)c2ccccc2C1=O (stereo not drawn)
30 to 1000 µM

Continue with `COC(=O)C1=C(O)c2ccccc2N(Cc2cc(F)ccc2F)C(=O)C1`
30 to 1000 µM

Continue with `CNC(=O)C1=C(O)c2ccccc2N(Cc2ccc(C#N)cc2)C(=O)C1`
30 to 1000 µM

Continue with `CNC(=O)C1=C(O)c2ccccc2N(Cc2cccc(F)c2F)C(=O)C1`
30 to 1000 µM

Continue with `CNC(=O)C1=C(O)c2ccc(OCc3ccc(OC)c(F)c3)cc2N(Cc2ccc(C)c(F)c2)C(=O)C1`
1 to 10 µM

Continue with `CNC(=O)C1=C(O)c2ccccc2N(Cc2cc(F)cc(F)c2)C(=O)C1`
30 to 1000 µM

Continue with `CNC(=O)C1=C(O)c2ccccc2N(Cc2cccnc2)C(=O)C1`
30 to 1000 µM

Continue with `CNC(=O)C1=C(O)c2ccccc2N(Cc2cc(F)ccc2C)C(=O)C1`
30 to 1000 µM

Continue with `COC(=O)C1=C(O)c2ccccc2N(Cc2ccc(F)cc2F)C(=O)C1`
30 to 1000 µM

Continue with `CNC(=O)C1=C(O)c2ccc(OC(F)F)cc2N(Cc2ccc(C)c(F)c2)C(=O)C1`
0.001 to 1 µM

Continue with `COC(=O)C1=C(O)c2ccccc2N(Cc2ccc(OC)c(OC)c2)C(=O)C1`
30 to 1000 µM

Continue with `CNC(=O)C1=C(O)c2ccccc2N(CCc2ccc(OC)cc2)C(=O)C1`
30 to 1000 µM

Continue with `COC(=O)C1=C(O)c2ccccc2N(Cc2cc(C)cc(C)c2)C(=O)C1`
30 to 1000 µM

Continue with `CNC(=O)C1=C(O)c2ccccc2N(Cc2ccc(F)c(Cl)c2)C(=O)C1`
30 to 1000 µM

Continue with `Cc1ccc(CN2C(=O)CC(C(=O)C(C)(C)C)=C(O)c3ccccc32)cc1F`
1 to 10 µM

Continue with `CCCC(=O)C1=C(O)c2ccccc2N(Cc2ccc(C)c(F)c2)C(=O)C1`
1 to 10 µM

Continue with `COC(=O)C1=C(O)c2ccccc2N(Cc2ccc(C)c(C)c2)C(=O)C1`
10 to 30 µM

Continue with `CNC(=O)C1=C(O)c2cc(OC)ccc2N(Cc2ccc(C)c(F)c2)C(=O)C1`
1 to 10 µM

====

Tested on: RPE-Neo or RPE-MYC or RPE-MYC expressing an EGFP-Histone 2B fusion protein
Assay: Phenotypic screening assay (arrest in mitosis, change in DNA content, cell death; GE IN-Cell Analyzer 2000)
Assay type: cell-based
Conditions: Homo sapiens; min. effective conc.; compounds 20 nM to 20 μM; 24, 48 or 72 hours; read-out: Cell Death (>30%)
Please provide measured minimal effective concentration for the entries that follow.

Query minimal effective concentration on RPE-Neo or RPE-MYC or RPE-MYC expressing an EGFP-Histone 2B fusion protein for COC(=O)C1=C(O)c2cc(OC)c(OC)cc2N(Cc2ccc(C)c(F)c2)C(=O)C1 [Example 54]
0.001 to 1 µM

Continue with CNC(=O)C1=C(O)c2cc(F)ccc2N(Cc2ccc(C)c(F)c2)C(=O)C1 [Example 135]
1 to 10 µM

Continue with CNC(=O)C1=C(O)c2ccccc2N(Cc2ccc(C(C)=O)cc2)C(=O)C1 [Example 90]
30 to 1000 µM

Continue with CNC(=O)C1=C(O)c2ccc(-c3cnn(C)c3)cc2N(Cc2ccc(C)c(F)c2)C(=O)C1 [Example 138]
1 to 10 µM
